target: RXFP4 L118S+V122S (Homo sapiens, UniProt Q8TDU9, L118S/V122S); construct: RXFP4(1-374)-; experiment: cAMP accumulation, RXFP4 L118S+V122S; details: HEK293T; 1.5 μM forskolin; mean ± S.E.M., n = 3; N.A., not active
Sequence (Q8TDU9 whole entry L118S/V122S): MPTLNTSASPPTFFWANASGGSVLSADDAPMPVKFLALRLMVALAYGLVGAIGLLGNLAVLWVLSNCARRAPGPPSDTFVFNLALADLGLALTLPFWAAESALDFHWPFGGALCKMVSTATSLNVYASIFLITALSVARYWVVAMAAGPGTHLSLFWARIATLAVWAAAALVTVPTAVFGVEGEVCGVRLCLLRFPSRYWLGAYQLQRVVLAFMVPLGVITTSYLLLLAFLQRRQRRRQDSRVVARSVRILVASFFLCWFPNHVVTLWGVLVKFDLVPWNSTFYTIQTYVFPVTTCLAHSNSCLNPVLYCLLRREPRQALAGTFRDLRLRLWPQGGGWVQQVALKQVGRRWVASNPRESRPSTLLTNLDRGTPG
quantity: EC50 (nM)
State the answer as a number, implicitly in nM.

INPUT: Bench note: what EC50 did CCOc1cc2c(cc1OC)CCN(C(=O)N1CCOCC1)[C@H]2CCc1c[nH]c2ccc(OC)cc12 [DC591053] show?
OUTPUT: 724

====

target: RXFP4 R208K (Homo sapiens, UniProt Q8TDU9, R208K); assay: cAMP accumulation, RXFP4 R208K; settings: HEK293T; 1.5 μM forskolin; mean ± S.E.M., n = 3
Sequence (Q8TDU9 whole entry R208K): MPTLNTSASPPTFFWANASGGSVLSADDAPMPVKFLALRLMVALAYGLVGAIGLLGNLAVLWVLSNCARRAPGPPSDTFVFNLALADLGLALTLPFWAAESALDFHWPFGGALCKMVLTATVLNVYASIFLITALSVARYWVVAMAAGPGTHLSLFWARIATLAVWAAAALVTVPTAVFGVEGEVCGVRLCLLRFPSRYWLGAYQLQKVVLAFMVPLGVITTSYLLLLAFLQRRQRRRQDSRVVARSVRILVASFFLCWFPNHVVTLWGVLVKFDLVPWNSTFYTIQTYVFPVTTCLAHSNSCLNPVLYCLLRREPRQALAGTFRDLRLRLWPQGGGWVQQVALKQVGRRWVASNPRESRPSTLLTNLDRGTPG
quantity: pEC50
# reply with the number alone; pEC50 is -log10 of concentration in mol/L

INPUT: What value of pEC50 has been recorded for this entry: "CCOc1cc2c(cc1OC)CCN(C(=O)N1CCOCC1)[C@H]2CCc1c[nH]c2ccc(OC)cc12"
OUTPUT: 6.69

====

biological target: RXFP4 Q205H (Homo sapiens, UniProt Q8TDU9, Q205H); assay: cAMP accumulation, RXFP4 Q205H; conditions: HEK293T; 1.5 μM forskolin; mean ± S.E.M., n = 3
Sequence (Q8TDU9 whole entry Q205H): as the sequence (Q8TDU9 whole entry L118S/V122S) above, with S118L, S122V, Q205H counted along it
quantity: EC50
For clarity, give the value followed by its unit.

INPUT: Item "CCOc1cc2c(cc1OC)CCN(C(=O)N1CCOCC1)[C@H]2CCc1c[nH]c2ccc(OC)cc12" has what recorded EC50?
OUTPUT: 676 nM

====

biological target: RXFP4 R208A (Homo sapiens, UniProt Q8TDU9, R208A); construct: RXFP4(1-374)-; expressed in transfected cells; host or cells: HEK293T, transient (pCMV6); experiment: cAMP accumulation, RXFP4 R208A; assay type: cell-based; conditions: HEK293T; 1.5 μM forskolin; mean ± S.E.M., n = 3; N.A., not active
Sequence (Q8TDU9 whole entry R208A): as the sequence (Q8TDU9 whole entry L118S/V122S) above, with S118L, S122V, R208A counted along it
quantity: pEC50
Convention used: pEC50 is expressed as -log10 of the molar concentration.

INPUT: Report pEC50 for "CCOc1cc2c(cc1OC)CCN(C(=O)N1CCOCC1)[C@H]2CCc1c[nH]c2ccc(OC)cc12" tested on RXFP4 R208A (Homo sapiens, UniProt Q8TDU9, R208A).
OUTPUT: 6.58

====

biological target: RXFP4 E100A (Homo sapiens, UniProt Q8TDU9, E100A); construct: RXFP4(1-374)-; assay: cAMP accumulation, RXFP4 E100A; conditions: HEK293T; 1.5 μM forskolin; mean ± S.E.M.; N.A., not active
Sequence (Q8TDU9 whole entry E100A): as the sequence (Q8TDU9 whole entry L118S/V122S) above, with E100A, S118L, S122V counted along it
quantity: EC50 (µM)
Expressed in µM, but write only the number.

INPUT: What does the data say about its EC50? Entry: "CCOc1cc2c(cc1OC)CCN(C(=O)N1CCOCC1)[C@H]2CCc1c[nH]c2ccc(OC)cc12"
OUTPUT: 0.107
